Molecular target: T1, cyno CD137 (cynomolgus monkey, UniProt Q07011 24-186 (human entry), limits assumed)
T1 construct: also called cynomolgus monkey CD137
T1 chain: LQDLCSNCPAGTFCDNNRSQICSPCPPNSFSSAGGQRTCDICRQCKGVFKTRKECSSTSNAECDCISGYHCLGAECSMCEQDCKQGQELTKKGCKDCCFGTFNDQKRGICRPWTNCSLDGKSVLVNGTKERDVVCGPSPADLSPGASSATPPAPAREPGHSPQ
Experiment: SPR Biacore T200, IgG captured on protein A, 25 C;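 further: antigens diluted in ACES running buffer at pH 7.4 were flowed over antibodies held on a CM3 chip bearing amine-coupled protein A, with buffer alone serving as blank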
readout.kind: Kd

Solved entries (count: 6):
binder: dBBDu189/L116 (antibody, V domains shown, IgG format; constant regions not specified) VH: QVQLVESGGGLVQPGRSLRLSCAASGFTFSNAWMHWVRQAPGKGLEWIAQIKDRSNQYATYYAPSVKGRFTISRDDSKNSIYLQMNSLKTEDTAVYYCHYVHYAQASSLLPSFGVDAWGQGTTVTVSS VL: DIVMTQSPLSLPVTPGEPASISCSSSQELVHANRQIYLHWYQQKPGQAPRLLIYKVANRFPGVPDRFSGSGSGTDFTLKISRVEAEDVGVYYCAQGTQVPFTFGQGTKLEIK
Kd: 11.1 µM
--
binder: dBBDu183/L067 (antibody, V domains shown, IgG format; constant regions not specified) VH: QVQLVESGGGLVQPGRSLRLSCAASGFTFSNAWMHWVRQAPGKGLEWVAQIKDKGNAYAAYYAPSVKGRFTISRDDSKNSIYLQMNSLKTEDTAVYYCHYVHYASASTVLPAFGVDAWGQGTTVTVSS VL: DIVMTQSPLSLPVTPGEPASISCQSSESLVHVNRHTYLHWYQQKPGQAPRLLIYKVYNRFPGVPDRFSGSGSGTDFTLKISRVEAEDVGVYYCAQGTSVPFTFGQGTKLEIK
Kd: 6.2 µM
--
binder: dBBDu186/L108 (antibody, V domains shown, IgG format; constant regions not specified) VH: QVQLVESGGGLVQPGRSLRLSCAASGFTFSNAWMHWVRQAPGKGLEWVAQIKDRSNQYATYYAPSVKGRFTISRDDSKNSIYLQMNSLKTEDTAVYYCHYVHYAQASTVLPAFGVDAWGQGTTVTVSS VL: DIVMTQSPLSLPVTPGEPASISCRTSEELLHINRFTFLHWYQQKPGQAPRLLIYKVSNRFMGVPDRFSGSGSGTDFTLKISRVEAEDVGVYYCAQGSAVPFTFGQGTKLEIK
Kd: 16.1 µM
--
binder: dBBDu193/L127 (antibody, V domains shown, IgG format; constant regions not specified; also called dBBDu_193 dBBDu.L127) VH: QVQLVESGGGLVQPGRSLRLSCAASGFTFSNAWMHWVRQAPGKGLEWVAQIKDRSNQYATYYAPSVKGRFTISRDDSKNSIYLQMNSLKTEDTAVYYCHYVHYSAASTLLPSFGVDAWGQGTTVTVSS VL: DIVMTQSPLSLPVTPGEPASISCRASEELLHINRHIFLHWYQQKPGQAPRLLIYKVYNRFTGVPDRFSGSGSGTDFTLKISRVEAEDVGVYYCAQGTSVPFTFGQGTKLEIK
Kd: 28.1 µM
--
binder: dBBDu186/L100 (antibody, V domains shown, IgG format; constant regions not specified) VH: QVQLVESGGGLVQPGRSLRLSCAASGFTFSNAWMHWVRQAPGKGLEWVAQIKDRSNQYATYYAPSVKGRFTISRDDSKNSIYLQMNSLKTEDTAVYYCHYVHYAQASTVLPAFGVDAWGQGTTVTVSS VL: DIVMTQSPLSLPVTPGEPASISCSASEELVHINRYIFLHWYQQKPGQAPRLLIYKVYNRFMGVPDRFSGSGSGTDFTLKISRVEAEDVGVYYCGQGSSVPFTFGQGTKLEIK
Kd: 70.4 µM
--
binder: dBBDu189/L112 (antibody, V domains shown, IgG format; constant regions not specified) VH: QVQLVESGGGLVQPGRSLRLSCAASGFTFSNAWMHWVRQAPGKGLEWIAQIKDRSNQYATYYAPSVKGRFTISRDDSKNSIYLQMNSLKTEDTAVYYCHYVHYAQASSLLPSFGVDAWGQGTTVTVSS VL: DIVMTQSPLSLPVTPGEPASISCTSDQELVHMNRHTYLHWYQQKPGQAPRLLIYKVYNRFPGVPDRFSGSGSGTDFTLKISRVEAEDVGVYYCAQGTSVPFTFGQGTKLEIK
Kd: 5.76 µM

INPUT: Bench note: what Kd did dBBDu167/L094 (antibody, V domains shown, IgG format; constant regions not specified; also called dBBDu_167 dBBDu.L094) VH: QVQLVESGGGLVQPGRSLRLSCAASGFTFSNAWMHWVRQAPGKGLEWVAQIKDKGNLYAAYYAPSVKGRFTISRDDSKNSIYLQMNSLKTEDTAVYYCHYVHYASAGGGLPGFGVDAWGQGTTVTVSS VL: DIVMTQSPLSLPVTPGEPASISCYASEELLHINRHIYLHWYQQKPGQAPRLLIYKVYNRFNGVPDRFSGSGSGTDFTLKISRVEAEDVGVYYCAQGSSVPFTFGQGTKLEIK show?
OUTPUT: 6.92 µM
